Biological target: Caspase-3 (Homo sapiens, UniProt P42574)
Sequence (P42574 whole entry): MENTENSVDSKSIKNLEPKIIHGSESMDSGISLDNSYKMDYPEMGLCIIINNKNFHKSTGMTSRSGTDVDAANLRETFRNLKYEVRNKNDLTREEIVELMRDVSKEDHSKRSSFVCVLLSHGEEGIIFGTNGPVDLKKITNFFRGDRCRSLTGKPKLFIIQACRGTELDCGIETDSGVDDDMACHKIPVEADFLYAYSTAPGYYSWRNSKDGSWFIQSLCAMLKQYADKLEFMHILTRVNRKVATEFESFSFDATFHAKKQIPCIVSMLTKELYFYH
pIC50: −log10 of the molar value.
# Lookup of reported pIC50 keyed by entry

| compound-structure-string | pIC50 |
| --- | --- |
| O=C1C(=O)N(Cc2ccccc2)c2ccc(S(=O)(=O)N3CCC[C@H]3COc3cccnc3)cc21 | 8.28 |
| CN1C(=O)C(=O)c2cc(S(=O)(=O)N3CCC[C@H]3COc3ccccc3)ccc21 | 6.92 |
| O=C1Nc2ccc(S(=O)(=O)N3CCC[C@H]3COc3cccnc3)cc2C1=O | 7.23 |
